Target: monkey GPC3 on HEK293T-monkey GPC3 cells (monkey)
Assay: FACS on HEK293T-monkey GPC3 cells
Hi there, I'd appreciate the recorded log10 of EC50 for every entry that follows.
Could you please treat all values as log10 of EC50 in nM?

Quick check: log10 of EC50 of hAb001H2L1 (antibody, human IgG1, V domains shown) VH: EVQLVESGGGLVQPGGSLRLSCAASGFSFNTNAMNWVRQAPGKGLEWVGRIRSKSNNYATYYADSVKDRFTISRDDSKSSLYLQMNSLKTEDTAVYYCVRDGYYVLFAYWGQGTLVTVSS VL: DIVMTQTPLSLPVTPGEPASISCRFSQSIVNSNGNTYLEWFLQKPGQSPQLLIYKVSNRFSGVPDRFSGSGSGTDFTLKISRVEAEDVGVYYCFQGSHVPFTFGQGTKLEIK ?
0.03

Quick check: log10 of EC50 of hAb003LH3L1b (antibody, human IgG1, V domains shown) VH: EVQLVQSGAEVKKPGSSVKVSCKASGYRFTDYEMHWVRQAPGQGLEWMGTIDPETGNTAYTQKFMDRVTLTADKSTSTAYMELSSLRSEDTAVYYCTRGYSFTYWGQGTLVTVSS VL: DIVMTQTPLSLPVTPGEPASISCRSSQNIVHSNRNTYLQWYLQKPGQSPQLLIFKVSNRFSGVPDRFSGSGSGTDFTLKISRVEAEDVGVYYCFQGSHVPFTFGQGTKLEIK ?
0.11

Quick check: log10 of EC50 of hAb006LH1L1 (antibody, human IgG1, V domains shown) VH: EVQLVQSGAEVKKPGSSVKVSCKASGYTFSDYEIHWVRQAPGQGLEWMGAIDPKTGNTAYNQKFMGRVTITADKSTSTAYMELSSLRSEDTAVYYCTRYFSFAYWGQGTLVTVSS VL: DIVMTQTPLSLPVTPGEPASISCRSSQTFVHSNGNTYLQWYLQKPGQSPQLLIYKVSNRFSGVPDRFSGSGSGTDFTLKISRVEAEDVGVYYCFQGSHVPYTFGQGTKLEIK ?
0.18

Quick check: log10 of EC50 of hAb005LH3L1 (antibody, human IgG1, V domains shown) VH: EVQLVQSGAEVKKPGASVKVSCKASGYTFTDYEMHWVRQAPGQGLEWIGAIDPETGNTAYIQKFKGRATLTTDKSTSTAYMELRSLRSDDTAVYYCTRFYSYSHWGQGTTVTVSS VL: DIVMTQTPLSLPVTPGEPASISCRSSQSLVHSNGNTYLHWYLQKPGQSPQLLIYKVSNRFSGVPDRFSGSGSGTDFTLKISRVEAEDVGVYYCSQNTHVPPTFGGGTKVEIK ?
0.49

Quick check: log10 of EC50 of hAb006LH3L1e (antibody, human IgG1, V domains shown) VH: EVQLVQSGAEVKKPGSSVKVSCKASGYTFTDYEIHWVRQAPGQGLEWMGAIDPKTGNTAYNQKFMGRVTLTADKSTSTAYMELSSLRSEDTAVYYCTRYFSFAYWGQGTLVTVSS VL: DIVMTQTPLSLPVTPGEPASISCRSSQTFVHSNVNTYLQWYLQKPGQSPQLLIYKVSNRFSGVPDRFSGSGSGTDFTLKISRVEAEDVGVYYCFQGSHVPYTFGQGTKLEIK ?
0.82

Quick check: log10 of EC50 of hAb005LH3L1a (antibody, human IgG1, V domains shown) VH: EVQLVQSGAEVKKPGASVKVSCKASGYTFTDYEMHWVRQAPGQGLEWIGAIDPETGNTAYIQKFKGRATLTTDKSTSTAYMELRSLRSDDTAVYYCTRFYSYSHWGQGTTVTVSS VL: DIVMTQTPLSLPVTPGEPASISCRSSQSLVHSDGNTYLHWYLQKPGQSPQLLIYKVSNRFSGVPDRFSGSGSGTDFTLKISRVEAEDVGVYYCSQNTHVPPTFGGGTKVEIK ?
2.05

Quick check: log10 of EC50 of hAb005LH1L1 (antibody, human IgG1, V domains shown) VH: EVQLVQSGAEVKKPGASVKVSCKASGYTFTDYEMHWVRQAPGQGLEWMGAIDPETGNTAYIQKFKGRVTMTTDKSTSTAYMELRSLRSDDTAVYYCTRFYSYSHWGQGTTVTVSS VL: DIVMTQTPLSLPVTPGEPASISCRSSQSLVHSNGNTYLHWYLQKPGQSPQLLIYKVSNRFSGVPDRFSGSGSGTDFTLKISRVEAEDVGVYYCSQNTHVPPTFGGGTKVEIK ?
0.34

Quick check: log10 of EC50 of hAb005LH3L1b (antibody, human IgG1, V domains shown) VH: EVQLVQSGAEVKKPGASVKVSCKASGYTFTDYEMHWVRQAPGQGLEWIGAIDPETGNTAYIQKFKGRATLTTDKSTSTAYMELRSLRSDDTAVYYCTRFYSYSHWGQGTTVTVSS VL: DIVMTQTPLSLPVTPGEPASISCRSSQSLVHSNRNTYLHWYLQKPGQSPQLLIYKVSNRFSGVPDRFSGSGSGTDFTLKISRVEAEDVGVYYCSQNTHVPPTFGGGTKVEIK ?
0.37

Quick check: log10 of EC50 of hAb003LH2L1 (antibody, human IgG1, V domains shown) VH: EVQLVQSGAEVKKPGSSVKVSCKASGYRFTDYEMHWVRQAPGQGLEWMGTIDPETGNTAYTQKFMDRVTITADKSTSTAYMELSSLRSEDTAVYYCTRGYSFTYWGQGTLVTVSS VL: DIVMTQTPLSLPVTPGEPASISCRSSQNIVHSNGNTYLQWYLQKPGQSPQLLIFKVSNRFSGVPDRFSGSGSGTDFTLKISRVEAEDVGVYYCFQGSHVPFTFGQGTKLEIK ?
0.12

Quick check: log10 of EC50 of hAb003LH1L1a (antibody, human IgG1, V domains shown) VH: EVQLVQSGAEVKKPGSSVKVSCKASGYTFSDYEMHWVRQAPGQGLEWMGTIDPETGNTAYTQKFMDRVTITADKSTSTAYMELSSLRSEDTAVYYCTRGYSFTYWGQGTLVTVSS VL: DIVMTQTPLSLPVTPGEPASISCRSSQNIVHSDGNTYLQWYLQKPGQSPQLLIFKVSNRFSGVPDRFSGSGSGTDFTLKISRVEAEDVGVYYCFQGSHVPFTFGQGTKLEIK ?
0.68
